Cited source for all entries: patent US20230167073A1

SYSTEM UNDER TEST: Human TRPC6 (Homo sapiens)
Construct: expressed in transfected cells
PROTOCOL DESCRIPTION: Evaluation of TRPC6 channel inhibitory activity (2), HEK293 cells with stably introduced human TRPC6, OAG stimulation, FLIPR tetra (Compound Nos. 1293 to 1405)
Type: cell-based
CONDITION DESCRIPTION: HEK293 cells with stably introduced human TRPC6, OAG 50 μM/0.5% DMSO, read-out: Inhibitory activity (pIC50 class) (converted)
Measured IC50, listed per entry for reference.

Examples from the recorded data:
> print(dat)
                                   molecule  measured.parameter  value.reported
1  Cn1nc(-c2ccccn2)cc1Oc1cc(C#N)ccc1-c1cc(Cl)c(CN)cn1 [compound 1316]                IC50       < 0.01 µM
2  Cn1nc(C2CC2)cc1Oc1cc(Cl)ccc1-c1ncc([C@@H](F)CN)cn1 [compound 1348]                IC50       < 0.01 µM

Would you kindly share the measured IC50 for Cc1cc(Oc2cc(Cl)ccc2-c2ccc(CN)cn2)cc(N2CCOCC2)n1 [compound 1321] ?
0.01 to 1 µM

----------
SYSTEM UNDER TEST: Human TRPC6 (Homo sapiens, UniProt Q9Y210)
Construct: expressed in transfected cells
PROTOCOL DESCRIPTION: Evaluation of TRPC6 channel inhibitory activity (1), FLIPR Calcium 5 Assay Kit, OAG stimulation (Compound Nos. 1-1293)
Assay type: cell-based
CONDITION DESCRIPTION: Human TRPC6 stably-expressing cells, OAG 30 μM, FLIPR Calcium 5 Assay Kit; read-out: Inhibitory activity (pIC50 class) (converted)
Each entry below carries its recorded IC50.

Below are worked cases with known answers.
> print(dat)
                                   molecule                         system.under.test  value.reported
1  Cc1nc(Oc2cc(C#N)ccc2-c2ncc(CN)cn2)cc(-c2ccc(F)cn2)n1  Human TRPC6 (Homo sapiens, UniProt Q9Y210)          > 1 µM
2  Cc1nc(Oc2cc(C#N)ccc2-c2ncc(CCN)cn2)cc(OC(C)C)n1  Human TRPC6 (Homo sapiens, UniProt Q9Y210)       < 0.01 µM
3  CN(C)C(=O)c1cc(Oc2cc(C#N)ccc2-c2ncc(CN)cn2)n(C)n1  Human TRPC6 (Homo sapiens, UniProt Q9Y210)    0.01 to 1 µM
4  CCN(CC)c1cc(Oc2cc(C#N)ccc2-c2ccc([C@H](F)CN)cn2)n(C)n1  Human TRPC6 (Homo sapiens, UniProt Q9Y210)       < 0.01 µM
5  CC(C)Cc1cc(Oc2cc(C#N)ccc2-c2ccc(C(O)CN)cc2)n(C)n1 (stereo not drawn)  Human TRPC6 (Homo sapiens, UniProt Q9Y210)       < 0.01 µM

Query (molecule): CC(C)n1nc(C2CC2)cc1Oc1cc(C#N)ccc1-c1ccc([C@H](O)CN)cn1 ; field requested: IC50
< 0.01 µM

Query: IC50; subject: CC(C)Nc1cc(Oc2cc(C#N)ccc2-c2ncc(CN)cn2)cnn1
0.01 to 1 µM

Data request, read-out IC50, for Cn1nc(C2CC2)cc1Oc1cc(C#N)ccc1-c1cc(CN)cn2cnnc12
> 1 µM

Please report the recorded IC50 for Cn1nc(C2CC2)cc1Oc1cc(C#N)ccc1-c1ccc(C(C)(C)N)cn1 .
0.01 to 1 µM

What value of IC50 has been reported for the following molecule? Cc1nc(CN2CCC(F)CC2)cn1Cc1cc(C#N)ccc1-c1ncc(CCN)cn1
> 1 µM

// lookup IC50 for COCCOC(CN)c1ccc(-c2ccc(C#N)cc2Oc2cc(N3CCOCC3)nc(C)n2)cc1 (stereo not drawn)
> 1 µM

----------
SYSTEM UNDER TEST: Human TRPC6 (Homo sapiens)
Construct: expressed in transfected cells
PROTOCOL DESCRIPTION: Evaluation of TRPC6 channel inhibitory activity (1), FLIPR Calcium 5 Assay Kit, OAG stimulation (Compound Nos. 1-1293)
Assay type: cell-based
CONDITION DESCRIPTION: Human TRPC6 stably-expressing cells, OAG 30 μM, FLIPR Calcium 5 Assay Kit; read-out: Inhibitory activity (pIC50 class) (converted)
Property: IC50; scope: individual molecules

> print(dat)
                                chem.smiles  value.reported
1  Cn1nc(N2CCOCC2)cc1C(=O)c1cc(C#N)ccc1-c1ncc(CN)cn1         < 10 nM
2  Cc1c(Oc2cc(C#N)ccc2-c2ncc(CN)cn2)cnn1CC(C)C   10 to 1000 nM

Reported IC50, molecule Cn1nc(C2CC2)cc1Oc1cc(C#N)ccc1-c1cccn2c(CCN)nnc12 : ____
10 to 1000 nM

----------
SYSTEM UNDER TEST: Human TRPC6 (Homo sapiens)
Construct: expressed in transfected cells
Sequence (Q9Y210 1-931): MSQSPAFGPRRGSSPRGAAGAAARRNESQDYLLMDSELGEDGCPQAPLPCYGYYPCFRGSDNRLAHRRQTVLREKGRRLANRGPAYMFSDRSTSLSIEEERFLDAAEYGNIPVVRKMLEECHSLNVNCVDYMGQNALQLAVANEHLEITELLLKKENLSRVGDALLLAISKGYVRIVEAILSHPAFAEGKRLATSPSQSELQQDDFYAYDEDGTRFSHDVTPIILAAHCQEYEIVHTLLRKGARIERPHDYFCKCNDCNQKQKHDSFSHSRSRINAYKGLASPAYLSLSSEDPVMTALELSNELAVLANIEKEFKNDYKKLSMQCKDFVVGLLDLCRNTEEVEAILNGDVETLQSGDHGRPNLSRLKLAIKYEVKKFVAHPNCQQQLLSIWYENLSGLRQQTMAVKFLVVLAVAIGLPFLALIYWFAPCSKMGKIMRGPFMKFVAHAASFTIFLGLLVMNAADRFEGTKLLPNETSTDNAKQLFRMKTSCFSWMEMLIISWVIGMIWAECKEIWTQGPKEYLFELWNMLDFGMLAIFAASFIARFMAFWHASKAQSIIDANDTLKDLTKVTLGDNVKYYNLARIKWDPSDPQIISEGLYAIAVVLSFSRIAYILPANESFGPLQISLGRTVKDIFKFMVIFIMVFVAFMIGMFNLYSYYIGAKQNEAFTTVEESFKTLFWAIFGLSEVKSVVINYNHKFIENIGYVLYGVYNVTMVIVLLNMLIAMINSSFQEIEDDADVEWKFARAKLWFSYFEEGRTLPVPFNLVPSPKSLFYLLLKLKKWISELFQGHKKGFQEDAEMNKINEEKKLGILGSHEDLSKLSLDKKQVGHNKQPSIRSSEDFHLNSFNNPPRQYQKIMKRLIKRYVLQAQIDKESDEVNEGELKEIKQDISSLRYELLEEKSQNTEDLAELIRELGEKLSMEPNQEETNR
PROTOCOL DESCRIPTION: Evaluation of TRPC6 channel inhibitory activity (1), FLIPR Calcium 5 Assay Kit, OAG stimulation (Compound Nos. 1-1293)
Assay type: cell-based
CONDITION DESCRIPTION: Human TRPC6 stably-expressing cells, OAG 30 μM, FLIPR Calcium 5 Assay Kit; read-out: Inhibitory activity (pIC50 class) (converted)
MEASURED PARAMETER: IC50

> print(dat)
                                   compound  value.reported
1  Cn1nc(C(C)(C)C)cc1C(OCC#N)c1cc(C#N)ccc1-c1ncc(CCN)cn1 (centres unmarked)         < 10 nM

Quick one: IC50 for Cc1nc(OCC2CCC2)cc(Oc2cc(C#N)ccc2-c2ccc(CCN)cc2)n1 ?
10 to 1000 nM

Reported IC50, compound Cc1nc(Oc2cc(C#N)ccc2-c2ncc([C@H](O)CN)cn2)cc(N2CCCC2)n1 : ____
< 10 nM

What value of IC50 has been reported for the following compound? Cc1nc(Oc2cc(C#N)ccc2-n2cc(C(O)CN)cn2)cc(-c2cccc(Cl)c2)n1 (centres unmarked)
< 10 nM

Bench note: what IC50 did Cc1nc(Oc2cc(C#N)ccc2-c2nc(C)c(C(O)CN(C)C)s2)cc(-c2ccccc2)n1 (centres unmarked) show?
> 1000 nM

Item Cc1nc(Oc2cc(C#N)ccc2-c2ncc(CN)cn2)cc(O[C@@H]2CCOC2)n1 has what recorded IC50?
> 1000 nM

Sample Cn1nc(C2CC2)cc1Oc1cc(C#N)ccc1-c1ccc(C(N)c2nnn[nH]2)cn1 (centres unmarked) — what was its IC50?
> 1000 nM

What value of measured IC50 is listed for Cc1cc(Oc2cc(C#N)ccc2-c2ccc([C@H](O)CN)cn2)cc(N2C[C@@H]3C[C@H]2CO3)n1 ?
< 10 nM

----------
SYSTEM UNDER TEST: Human TRPC6 (Homo sapiens, UniProt Q9Y210)
Construct: expressed in transfected cells
PROTOCOL DESCRIPTION: Evaluation of TRPC6 channel inhibitory activity (1), FLIPR Calcium 5 Assay Kit, OAG stimulation (Compound Nos. 1-1293)
Assay type: cell-based
CONDITION DESCRIPTION: Human TRPC6 stably-expressing cells, OAG 30 μM, FLIPR Calcium 5 Assay Kit; read-out: Inhibitory activity (pIC50 class) (converted)
Known IC50 of a selection of molecules

> print(dat)
                                   molecule  value.reported
1  CC(C)n1cc(Oc2cc(Cl)ccc2-c2ncc(CCN)cn2)cn1   10 to 1000 nM
2  Cn1nc(N2CCOCC2)cc1Oc1cc(C#N)ccc1-c1ncc(CN)cn1         < 10 nM
3  Cc1nc(Oc2cc(C#N)ccc2-c2ccc([C@H](O)CN)cn2)cc(-c2ncc(C)s2)n1   10 to 1000 nM
4  N#Cc1ccc(-n2cc(C(O)CN)cn2)c(Oc2cnnc(-c3ccccc3)c2)c1 (centres unmarked)   10 to 1000 nM

I would be grateful if you could share the reported IC50 for Cc1nc(-c2ccccc2)cn1Cc1cc(C#N)ccc1-c1ccc(C(O)CN)cn1 (centres unmarked) .
10 to 1000 nM
